- experiment: folding stability dG unfold from trypsin proteolysis; higher = more stable
experimental-readout: folding stability dG unfold (kcal/mol)
Give the number; kcal/mol is assumed, so skip it.

Worked cases, answers included:
{"sequence-data": "SAGGSAGGSAGGPSPSTPVTVTVTFPETGETVTLEVTDLEELRERFPDRPVEITVSPGGSAGGSAGGSAGGS [r10_1004_JUSTAS]", "folding stability dG unfold (kcal/mol)": 2.5}
{"sequence-data": "SAGGSKPVKVTVRRDPKNPDKWTVTVTAGDKTTTLTFDPNDEAAVRAALEAALPADEVLEELEFEDLLSAGG [r13_519_JUSTAS]", "folding stability dG unfold (kcal/mol)": 2.8}
{"sequence-data": "SAGGSFVKIKVKFDNKPIEIPIPDFVQKVEGDYQTIVFPEGDADSVLKKLKEASKKIEIVKVEVVKPSAGGS [r8_490_TrMRF]", "folding stability dG unfold (kcal/mol)": -0.735}

SKMKVIKTFENKETGEKIVIVKDEKTKKYYIFIYNKDGELVEKIEVEPGETITLPNGKTITIKEGDVIEFSA [r9_340_TrROS_Hall] yielded folding stability dG unfold of 4.24

SAKEPVYLVRIRVEIYKDGKPVKELEIEVEVEEGETLEEVLERLREELEKKGYKIVKVEIEVRKLPPPESAG [r14_979_TrROS_Hall] yielded folding stability dG unfold of 3.35

====

- experiment: folding stability dG unfold from chymotrypsin proteolysis; higher = more stable
Items are presented alongside their recorded folding stability dG unfold.
Give the number; kcal/mol is assumed, so skip it.

{"sequence-data": "SAGGSAGGNVLIPKSKLEEFLKNIPFEVLVLNPENPRLEIARVEADDIFVDDDYALILLTVSNDSAGGSAGG [r6_753_TrMRF]", "measure-unit": "kcal/mol", "recorded-result": 0.221}
{"sequence-data": "SAGGSAEELAKELAEKEGVKEVKVTVIKNKNGKLVLKVENKETNKTYEIELPEGAEVVEEITLKVKSAGGSA [r2_74_TrROS_Hall]", "measure-unit": "kcal/mol", "recorded-result": 1.23}
{"sequence-data": "MPLGLESERYPNGAPTIESVEVPEDGSVKITLYFPETGEKVEYTLPPNIPPGTEYEIDLPGPTGTGRLRLGS [r1_43_TrMRF]", "measure-unit": "kcal/mol", "recorded-result": 1.65}

SAGGSAGGSAEWKPITYWVPPGQSIKEIADDLMDKNPRITDAEMEYDPDGYMKVTLTVRLDSAGGSAGGSAG [r3_371_TrROS] yielded folding stability dG unfold of 0.505

====

- experiment: folding stability dG unfold from chymotrypsin proteolysis; higher = more stable
folding stability dG unfold of 3 kcal/mol or higher: yes. Under 3 kcal/mol: no.

{"sequence-data": "SAGGSAGGSAGGMNTPIVVETEDLPSSRPVEEVKAEAAPKGYTEVKAYPDGTVVITKVRSSAGGSAGGSAGG [r11_961_JUSTAS]", "group": "no"}
{"sequence-data": "SAGGSAGMDPSKVSLSISTKTYTDTATGRKVEELYFEGSGKKVTVTTLPDGTKIVTYENGVVIEVESAGGSA [r15_617_JUSTAS]", "group": "no"}
{"sequence-data": "SAGGSAGGMKVLATTEDGEVYLFDLSEFDLSFEEWLNLGEEELAELLRKAFPEKEITLELVEEPSAGGSAGG [r6_164_TrMRF]", "group": "yes"}

Hi, just wondering whether SAGKKVRIWIVFDGDPEQAKYLAEEIAKELRQKDGHKNVDIEVIPPGQDMHQMMEWAEENNVDIVIMVSAGG [r19_89_TrROS] shows folding stability dG unfold of 3 kcal/mol or higher.
yes

====

- experiment: folding stability dG unfold (combined trypsin and chymotrypsin); higher = more stable
folding stability dG unfold of 1 kcal/mol or higher: Fulfilled. Under 1 kcal/mol: Not fulfilled.

Known results for sequences:
{"sequence-data": "SAGGSAGGSAPWLTIIFRMDTPEMAKEIANWLREDGLDIEVETEPDPNDGRFWVMITIQLPNSAGGSAGGSA [r18_455_TrROS]", "group": "Fulfilled"}
{"sequence-data": "SMSYTVTVEYPDTGKTTTTPIPPDALEVSVSLSGPSTIRITITTDVNGATTTTTSTVTLPPPALPPSTLLSA [r9_1067_JUSTAS]", "group": "Fulfilled"}

Hi, just wondering whether SAGGSAGGSAGPKVVLVPVKVVQKLLGVKIPENSRVLVLLEKDKVKAVLVFPVLPSPENPSAGGSAGGSAGG [r11_616_TrMRF] shows folding stability dG unfold of 1 kcal/mol or higher.
Fulfilled

====

- experiment: folding stability dG unfold (combined trypsin and chymotrypsin); higher = more stable
Items are presented alongside their recorded folding stability dG unfold.

{"sequence-data": "SAGGSAGGSNWTIKVNIVEKPNGKKYIPITMRPPNGNTREGPMPADEIKDRFGMPAEDIAKAISAGGSAGGS [r20_235_TrROS]", "folding stability dG unfold": "< -1 kcal/mol"}

SAGGSAGGSAGGSGEDDVEVEVVPLPGDLTRTIERFPGLVRTFVYAPDSEVAEEEFELPSAGGSAGGSAGGS [r4_322_JUSTAS] yielded folding stability dG unfold of < -1 kcal/mol

SAGGSAGGMKKEKFGDSIRYTFPVDPNTSVEEIKKEIEKIPGVKDISKVKITPSPSNKLLVYVKSAGGSAGG [r6_516_JUSTAS] yielded folding stability dG unfold of < -1 kcal/mol

====

- experiment: folding stability dG unfold from chymotrypsin proteolysis; higher = more stable
experimental-readout: folding stability dG unfold
Phrase the answer as number then unit, nothing more needed.

Worked cases, answers included:
{"sequence-data": "SAGGEKKPVKVKIEVESFKLPNVLVLKAKVYLPATGKWYEAIVIEGPTKTLVVIKFPDGSSLVLELNSAGGS [r16_657_TrMRF]", "folding stability dG unfold": "4.12 kcal/mol"}
{"sequence-data": "SAGGSAGGSPNPKVVPFTFPVVIPDEDGHPYLVNVTVTAIPDTDTYYARITYPDGRVEDFVLASAGGSAGGS [r12_286_TrMRF]", "folding stability dG unfold": "2.49 kcal/mol"}
{"sequence-data": "SAGGSAGGSDTLEYEVPLEDGSTIRITLFPDGTARVELEDGTPVAEIEVPPDTSIEELIARIRSAGGSAGGS [r12_990_TrMRF]", "folding stability dG unfold": "2.06 kcal/mol"}
{"sequence-data": "SAGGSAGGSASSSTFPRRNYTVTITTDPSNGKKTVTVLNPATGEATTLTPEELEADPVLAEAVSAGGSAGGS [r12_817_JUSTAS]", "folding stability dG unfold": "1.8 kcal/mol"}
{"sequence-data": "SAGTIWIPVDELKELGIPPGDTAEEFKQQISDRLMEQGWTVKIPDIEVEPLDPNDGRVWVRINIEFKPPSAG [r5_23_TrROS]", "folding stability dG unfold": "0.42 kcal/mol"}
{"sequence-data": "SAGGSAGGSIFIHWTYEMEHERDPDDPDEPRMKMKIKDWVISIPEDDPDKLKELADKLGIPIISAGGSAGGS [r12_249_TrROS]", "folding stability dG unfold": "1.69 kcal/mol"}
{"sequence-data": "SAGGSAGGSAGGFVLTFTLPDSVVRITLPEDANPEEIKQRLLEEHGVPIELRLIPPSNPLSAGGSAGGSAGG [r11_805_JUSTAS]", "folding stability dG unfold": "0.664 kcal/mol"}
{"sequence-data": "SAGGEIEIVVETPEDLEKAKELAEELAKALEEAGLEIEEVKVELVEETVVNEDGEEKKRYVLKITFPSAGGS [r16_591_TrROS_Hall]", "folding stability dG unfold": "3.24 kcal/mol"}

SAGGSAGGSAGGKSYTDPNSNTVTTLDEGPGFGKVTTTTYKPEEPVPLETTESIIGPVLSSAGGSAGGSAGG [r7_343_JUSTAS] yielded folding stability dG unfold of -0.026 kcal/mol

SAGMEEEEVVLKIRVKDPETGEEKTFEVKLKDIEKVEVDEDGNIRIYLKEDGKEITIPADKITEVELLSAGG [r19_416_TrROS_Hall] yielded folding stability dG unfold of 3.86 kcal/mol

====

Items are presented alongside their recorded folding stability dG unfold.
- experiment: folding stability dG unfold from trypsin proteolysis; higher = more stable
Give the number; kcal/mol is assumed, so skip it.

Worked cases, answers included:
{"sequence-data": "SAGGSAGGSMHEDEQLPYEAAEKYTILKLKEENEKLNLPPIPIKKIEIEKDPETGLVRVKVYGSAGGSAGGS [r12_583_TrMRF]", "folding stability dG unfold [kcal/mol]": -0.788}
{"sequence-data": "SAGGMKEITLPNGVKITEVIEKDGYYYIKIYNKKTGKVYEIKVKKGEKIEIKFPKGSTVTKIEIVKKSAGGS [r16_123_TrROS_Hall]", "folding stability dG unfold [kcal/mol]": 1.7}
{"sequence-data": "SAGGDNVRPIKFEFKDGVKKSIYRSEDMIYINVEFYYDGRPLYRHSIEIPNIPPGDDAEIKFKIPPGSAGGS [r8_155_TrROS]", "folding stability dG unfold [kcal/mol]": 0.372}
{"sequence-data": "SASLEELLAELPFDAEVETKDEEVVVKITNPENPDPNVSYTFNIPSSSGVPITVNVTEVEGGTKSVKALSAG [r14_401_JUSTAS]", "folding stability dG unfold [kcal/mol]": -0.448}

Okay, next one:
SAGGSAGGSAGPLSTVTETTTTVPLPNGEVLTVTTYTYPDLGVTTVTTTYPDGTVTTTTIPVSAGGSAGGSA [r18_88_JUSTAS] yielded folding stability dG unfold of 2.3
